Reference for the values: patent US9084424B2

Test system: Alternaria solani
assay-overview: In vivo preventive test on Alternaria solani (tomato)
setup-conditions: preventive spray, 500 ppm of active ingredient, evaluated 7 days after inoculation

[
  {
    "molecule": "Cn1nc(C(F)F)c(C(=O)NC(c2ccccc2Cl)C(F)(F)F)c1F (racemic) [Example 23]",
    "Efficacy": "89%"
  },
  {
    "molecule": "Cn1nc(C(F)F)c(C(=O)NCc2ccccc2C2CC2)c1F [Example 65]",
    "Efficacy": "90%"
  },
  {
    "molecule": "CC(C)c1ccccc1CNC(=O)c1c(C(F)F)nn(C)c1F [Example 74]",
    "Efficacy": "95%"
  },
  {
    "molecule": "Cn1nc(C(F)F)c(C(=O)NCc2ccccc2C(F)(F)F)c1Cl [Example 83]",
    "Efficacy": "90%"
  },
  {
    "molecule": "CC(c1cc(Cl)ccc1Cl)N(C)C(=O)c1c(C(F)F)nn(C)c1Cl (stereo not drawn) [Example 55]",
    "Efficacy": "95%"
  },
  {
    "molecule": "CC(C)c1ccccc1CN(C(=O)c1c(C(F)F)nn(C)c1F)C1CCC1 [Example 70]",
    "Efficacy": "90%"
  },
  {
    "molecule": "CC(NC(=S)c1c(C(F)F)nn(C)c1Cl)c1ccccc1C(F)(F)F (stereo not drawn) [Example 85]",
    "Efficacy": "95%"
  },
  {
    "molecule": "Cn1nc(C(F)F)c(C(=O)NCc2ccccc2Oc2ccccc2)c1F [Example 144]",
    "Efficacy": "89%"
  },
  {
    "molecule": "Cn1nc(C(F)F)c(C(=O)NCc2ccccc2SC(F)(F)F)c1F [Example 107]",
    "Efficacy": "80%"
  },
  {
    "molecule": "CCN(Cc1c(Cl)cccc1C(F)(F)F)C(=O)c1c(C(F)F)nn(C)c1F [Example 91]",
    "Efficacy": "100%"
  },
  {
    "molecule": "CC(NC(=S)c1c(C(F)F)nn(C)c1Cl)c1ccc(Cl)cc1Cl (stereo not drawn) [Example 44]",
    "Efficacy": "100%"
  },
  {
    "molecule": "Cn1nc(C(F)F)c(C(=O)N(Cc2cccc(Oc3ccccc3)c2)C2COC2)c1F [Example 148]",
    "Efficacy": "80%"
  },
  {
    "molecule": "CC(NC(=O)c1c(C(F)F)nn(C)c1F)c1cccc(Cl)c1Cl (racemic) [Example 29]",
    "Efficacy": "94%"
  },
  {
    "molecule": "CN(Cc1cccc(Oc2ccccc2)c1)C(=O)c1c(C(F)F)nn(C)c1F [Example 150]",
    "Efficacy": "70%"
  },
  {
    "molecule": "CC(NC(=O)c1c(C(F)F)nn(C)c1F)c1ccc(OCc2ccccc2)cc1 (racemic) [Example 162]",
    "Efficacy": "100%"
  },
  {
    "molecule": "Cn1nc(C(F)F)c(C(=O)NCc2ccc(-c3ccccc3)cc2)c1F [Example 170]",
    "Efficacy": "94%"
  },
  {
    "molecule": "Cn1nc(C(F)F)c(C(=O)NCc2ccccc2C(F)(F)F)c1F [Example 81]",
    "Efficacy": "90%"
  },
  {
    "molecule": "CON(Cc1ccccc1C(C)C)C(=O)c1c(C(F)F)nn(C)c1F [Example 76]",
    "Efficacy": "94%"
  }
]

* * *

assay-overview: log P by HPLC on reversed-phase column (EEC Directive 79/831 Annex V.A8)
Assay type: physicochemical
setup-conditions: HPLC on reversed-phase column (C 18), 40° C., 0.1% aqueous formic acid and acetonitrile, linear gradient 10% to 90% acetonitrile
// label = TRUE if logP is not less than 3, otherwise FALSE

[
  {
    "molecule": "CN(Cc1ccc(Oc2ccc(Cl)cc2)cc1)C(=O)c1c(C(F)F)nn(C)c1F",
    "cat": "TRUE"
  },
  {
    "molecule": "Cn1nc(C(F)F)c(C(=O)N(Cc2ncc(Cl)cc2Cl)C2CCCC2)c1Cl",
    "cat": "TRUE"
  },
  {
    "molecule": "CN(Cc1ccc(Oc2ccccc2)cc1)C(=O)c1c(C(F)F)nn(C)c1F",
    "cat": "TRUE"
  },
  {
    "molecule": "Cn1nc(C(F)F)c(C(=O)NCc2ccc(OCc3ccccc3)cc2)c1Cl",
    "cat": "TRUE"
  },
  {
    "molecule": "CC(c1ncc(Cl)cc1Cl)N(C)C(=O)c1c(C(F)F)nn(C)c1Cl (stereo not shown)",
    "cat": "TRUE"
  },
  {
    "molecule": "Cn1nc(C(F)F)c(C(=O)NCc2ccc(Oc3ccccc3)cc2)c1F",
    "cat": "TRUE"
  },
  {
    "molecule": "Cn1nc(C(F)F)c(C(=O)NC2(c3ccccn3)CCCC2)c1Cl",
    "cat": "FALSE"
  },
  {
    "molecule": "Cn1nc(C(F)F)c(C(=O)NCc2ccc(C(F)(F)F)cc2)c1Cl",
    "cat": "FALSE"
  },
  {
    "molecule": "CC(NC(=O)c1c(C(F)F)nn(C)c1Cl)c1ccc(OCc2ccccc2)cc1 (racemic)",
    "cat": "TRUE"
  },
  {
    "molecule": "Cn1nc(C(F)F)c(C(=O)N(Cc2ncc(C(F)(F)F)cc2Cl)C2CCCC2)c1Cl",
    "cat": "TRUE"
  },
  {
    "molecule": "CON(Cc1ncc(Cl)cc1Cl)C(=O)c1c(C(F)F)nn(C)c1F",
    "cat": "FALSE"
  },
  {
    "molecule": "Cn1nc(C(F)F)c(C(=O)NCc2ccc(OCc3ccccc3)cc2)c1F",
    "cat": "TRUE"
  },
  {
    "molecule": "Cn1nc(C(F)F)c(C(=O)NCc2cccc(-c3ccccc3)c2)c1F",
    "cat": "TRUE"
  }
]

* * *

assay-overview: log P by HPLC on reversed-phase column (EEC Directive 79/831 Annex V.A8)
Assay type: physicochemical
setup-conditions: HPLC on reversed-phase column (C 18), 40° C., 0.1% aqueous formic acid and acetonitrile, linear gradient 10% to 90% acetonitrile
quantity-measured: logP

[
  {
    "molecule": "CN(Cc1ncc(Cl)cc1Cl)C(=O)c1c(C(F)F)nn(C)c1Cl",
    "measured-number": 2.73
  },
  {
    "molecule": "CCOc1ccc(C2(NC(=O)c3c(C(F)F)nn(C)c3Cl)CCCC2)cc1",
    "measured-number": 3.59
  },
  {
    "molecule": "Cn1nc(C(F)F)c(C(=O)NC2(c3ccc(C(F)(F)F)cc3)CCCC2)c1F",
    "measured-number": 3.72
  },
  {
    "molecule": "CC(c1ncc(Cl)cc1Cl)N(C)C(=O)c1c(C(F)F)nn(C)c1F (centres unmarked)",
    "measured-number": 2.92
  },
  {
    "molecule": "Cn1nc(C(F)F)c(C(=O)NC2(c3ccc(Cl)c(C(F)(F)F)c3)CC2)c1Cl",
    "measured-number": 3.41
  },
  {
    "molecule": "Cn1nc(C(F)F)c(C(=O)NCc2ccc(Cl)cc2)c1Cl",
    "measured-number": 2.70
  },
  {
    "molecule": "Cn1nc(C(F)F)c(C(=O)N(Cc2ncc(C(F)(F)F)cc2Cl)C2CCCC2)c1F",
    "measured-number": 3.96
  },
  {
    "molecule": "Cn1nc(C(F)F)c(C(=O)NCc2ccccc2Oc2ccccc2)c1Cl",
    "measured-number": 3.46
  },
  {
    "molecule": "CN(Cc1ccc(Oc2ccc(Cl)cc2)cc1)C(=O)c1c(C(F)F)nn(C)c1Cl",
    "measured-number": 3.96
  },
  {
    "molecule": "Cn1nc(C(F)F)c(C(=O)N(Cc2cccc(Oc3ccccc3)c2)C2COC2)c1F",
    "measured-number": 3.06
  },
  {
    "molecule": "Cn1nc(C(F)F)c(C(=O)N(Cc2ncc(Cl)cc2Cl)C2CCCC2)c1F",
    "measured-number": 3.85
  },
  {
    "molecule": "Cn1nc(C(F)F)c(C(=O)NC2(c3cccc(C(F)(F)F)c3)CCCC2)c1F",
    "measured-number": 3.65
  },
  {
    "molecule": "CC(NC(=O)c1c(C(F)F)nn(C)c1F)c1ccc(OCc2ccccc2)cc1 (racemic)",
    "measured-number": 3.41
  },
  {
    "molecule": "Cn1nc(C(F)F)c(C(=O)N(Cc2cccc(Oc3ccccc3)c2)C2COC2)c1Cl",
    "measured-number": 3.19
  },
  {
    "molecule": "CC(NC(=O)c1c(C(F)F)nn(C)c1F)c1ncc(C(F)(F)F)cc1Cl (racemic)",
    "measured-number": 3.19
  },
  {
    "molecule": "CN(Cc1cc(Cl)ccn1)C(=O)c1c(C(F)F)nn(C)c1Cl",
    "measured-number": 2.01
  },
  {
    "molecule": "Cn1nc(C(F)F)c(C(=O)NCc2ccc(C(F)(F)F)cc2)c1F",
    "measured-number": 2.75
  },
  {
    "molecule": "COc1ccc(C2(NC(=O)c3c(C(F)F)nn(C)c3F)CCCC2)cc1",
    "measured-number": 3.06
  },
  {
    "molecule": "Cn1nc(C(F)F)c(C(=O)NCc2ccccc2Oc2ccccc2)c1F",
    "measured-number": 3.25
  },
  {
    "molecule": "CC(NC(=O)c1c(C(F)F)nn(C)c1F)c1ccc(-c2ccccc2)cc1 (racemic)",
    "measured-number": 3.46
  },
  {
    "molecule": "CCOc1ccc(C2(NC(=O)c3c(C(F)F)nn(C)c3F)CCCC2)cc1",
    "measured-number": 3.44
  },
  {
    "molecule": "CC(c1cc(Cl)cc(Cl)c1)N(C)C(=O)c1c(C(F)F)nn(C)c1Cl (centres unmarked)",
    "measured-number": 3.65
  },
  {
    "molecule": "CCC(NC(=O)c1c(C(F)F)nn(C)c1F)c1ccc(Cl)cc1Cl (centres unmarked)",
    "measured-number": 3.61
  },
  {
    "molecule": "Cn1nc(C(F)F)c(C(=O)NCc2ccc3c(c2)CCCC3)c1Cl",
    "measured-number": 3.44
  },
  {
    "molecule": "CCC(NC(=O)c1c(C(F)F)nn(C)c1Cl)c1ccc(Cl)cc1Cl (centres unmarked)",
    "measured-number": 3.79
  },
  {
    "molecule": "Cn1nc(C(F)F)c(C(=O)NCc2ccc(C(C)(C)C)cc2)c1F",
    "measured-number": 3.42
  },
  {
    "molecule": "Cn1nc(C(F)F)c(C(=O)NCc2ncc(C(F)(F)F)cc2Cl)c1F",
    "measured-number": 2.76
  },
  {
    "molecule": "COc1ccc(C2(NC(=O)c3c(C(F)F)nn(C)c3Cl)CCCC2)cc1",
    "measured-number": 3.19
  },
  {
    "molecule": "Cn1nc(C(F)F)c(C(=O)NCc2ccccc2SC(F)(F)F)c1F",
    "measured-number": 3.11
  },
  {
    "molecule": "Cn1nc(C(F)F)c(C(=O)NC2CCc3ccccc32)c1F (centres unmarked)",
    "measured-number": 2.57
  },
  {
    "molecule": "Cn1nc(C(F)F)c(C(=O)NCc2cccc(-c3ccccc3)c2)c1Cl",
    "measured-number": 3.33
  },
  {
    "molecule": "Cn1nc(C(F)F)c(C(=O)NCc2cc(Cl)cc(Cl)c2)c1F",
    "measured-number": 3.09
  },
  {
    "molecule": "CC(c1ccc(Oc2ccccc2)cc1)N(C)C(=O)c1c(C(F)F)nn(C)c1Cl (racemic)",
    "measured-number": 3.76
  },
  {
    "molecule": "Cn1nc(C(F)F)c(C(=O)NCc2ccccc2-c2ccccc2)c1F",
    "measured-number": 3.21
  },
  {
    "molecule": "Cn1nc(C(F)F)c(C(=O)NCc2cccc(Oc3ccccc3)c2)c1F",
    "measured-number": 3.23
  }
]
